Just for reference, patent US12421243B2 is where these values come from.

test system: isolated rabbit skeletal muscle myosin (skeletal); test: actomyosin steady state ATPase measurement, skeletal muscle myosin; type: biochemical; conditions: 5 μM (10 μM if racemate); ATPase activity
Give % inhibition at 5 μM (or 10 μM if racemate) Skeletal for every item shown.

Guide cases for % inhibition at 5 μM (or 10 μM if racemate) Skeletal, answers given:
MOLECULE	ENDPOINT_VALUE
CC(=O)c1ccc(N2CC[C@@]3(O)C(=O)c4ccsc4N=C23)cc1	80%
O=C1c2ccncc2N=C2N(c3ccccc3)CCC12O (stereo not drawn)	25%
Cc1cc2c(s1)N=C1N(c3ccc(N)cc3)CCC1(O)C2=O (stereo not drawn)	65%

Kindly give each listed record's % inhibition at 5 μM (or 10 μM if racemate) Skeletal.
1. COc1ccc(N2CCC3(O)C(=O)c4cc(C)sc4N=C23)cn1 (stereo not drawn)
2. Cc1cc2c(s1)N=C1N(c3ccc(CC#N)cc3)CCC1(O)C2=O (stereo not drawn)
3. O=C1c2ccsc2N=C2NCC[C@@]12O

Return:
1: 85%; 2: 91%; 3: 7%

====

Biological target: recombinant human non-muscle myosin 2 NM2C (Homo sapiens)
Sequence (Q7Z406 whole entry): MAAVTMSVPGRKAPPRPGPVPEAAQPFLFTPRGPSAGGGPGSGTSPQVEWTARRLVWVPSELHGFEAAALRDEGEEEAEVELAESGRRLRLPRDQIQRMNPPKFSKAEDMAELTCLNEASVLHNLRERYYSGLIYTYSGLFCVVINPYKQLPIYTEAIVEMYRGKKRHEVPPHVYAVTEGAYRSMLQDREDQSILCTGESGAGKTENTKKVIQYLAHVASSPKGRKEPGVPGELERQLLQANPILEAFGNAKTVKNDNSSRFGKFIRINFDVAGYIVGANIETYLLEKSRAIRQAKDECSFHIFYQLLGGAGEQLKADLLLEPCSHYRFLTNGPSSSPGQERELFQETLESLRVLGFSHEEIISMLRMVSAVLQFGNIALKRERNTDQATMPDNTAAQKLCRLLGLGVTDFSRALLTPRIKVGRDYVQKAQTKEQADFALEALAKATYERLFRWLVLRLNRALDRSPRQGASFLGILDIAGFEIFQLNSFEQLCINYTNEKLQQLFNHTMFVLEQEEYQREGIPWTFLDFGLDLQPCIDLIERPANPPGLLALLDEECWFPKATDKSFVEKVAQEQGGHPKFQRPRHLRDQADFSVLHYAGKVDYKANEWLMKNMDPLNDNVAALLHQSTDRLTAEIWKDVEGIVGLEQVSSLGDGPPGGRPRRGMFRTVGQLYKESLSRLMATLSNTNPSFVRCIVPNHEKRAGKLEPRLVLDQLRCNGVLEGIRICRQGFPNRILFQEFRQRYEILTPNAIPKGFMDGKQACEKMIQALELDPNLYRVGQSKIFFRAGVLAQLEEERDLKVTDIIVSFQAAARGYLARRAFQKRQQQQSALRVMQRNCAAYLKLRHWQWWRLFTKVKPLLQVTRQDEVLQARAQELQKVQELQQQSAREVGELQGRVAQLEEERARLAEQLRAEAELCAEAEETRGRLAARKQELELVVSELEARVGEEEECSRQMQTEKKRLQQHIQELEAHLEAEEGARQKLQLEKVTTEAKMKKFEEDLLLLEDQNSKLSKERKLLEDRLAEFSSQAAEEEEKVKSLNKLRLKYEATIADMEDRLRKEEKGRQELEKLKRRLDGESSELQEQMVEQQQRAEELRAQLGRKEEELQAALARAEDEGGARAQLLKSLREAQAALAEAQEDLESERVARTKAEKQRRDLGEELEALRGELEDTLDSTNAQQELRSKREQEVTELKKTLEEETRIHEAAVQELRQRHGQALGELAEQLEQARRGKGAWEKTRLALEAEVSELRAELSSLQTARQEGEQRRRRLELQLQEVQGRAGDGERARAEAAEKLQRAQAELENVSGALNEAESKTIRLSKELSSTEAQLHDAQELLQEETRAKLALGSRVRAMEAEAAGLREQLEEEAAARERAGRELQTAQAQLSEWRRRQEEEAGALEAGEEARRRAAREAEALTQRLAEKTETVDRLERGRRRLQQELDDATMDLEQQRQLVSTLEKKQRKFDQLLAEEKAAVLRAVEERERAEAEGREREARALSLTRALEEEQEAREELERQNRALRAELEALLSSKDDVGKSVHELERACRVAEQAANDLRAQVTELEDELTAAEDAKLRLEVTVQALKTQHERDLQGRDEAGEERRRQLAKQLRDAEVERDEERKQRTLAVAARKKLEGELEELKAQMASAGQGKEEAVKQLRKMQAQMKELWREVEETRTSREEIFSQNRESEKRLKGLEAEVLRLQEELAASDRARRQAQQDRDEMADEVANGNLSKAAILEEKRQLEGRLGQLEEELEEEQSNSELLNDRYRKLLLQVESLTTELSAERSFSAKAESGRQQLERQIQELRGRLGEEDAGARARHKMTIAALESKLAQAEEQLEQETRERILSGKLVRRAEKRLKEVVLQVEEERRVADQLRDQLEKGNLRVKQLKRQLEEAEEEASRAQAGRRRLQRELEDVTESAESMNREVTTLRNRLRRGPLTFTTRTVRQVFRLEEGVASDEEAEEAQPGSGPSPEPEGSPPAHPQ
Assay: actomyosin steady state ATPase measurement, NM2C
Assay type: biochemical
Conditions: concentration required for semi-maximal inhibition of ATPase
Excerpt: […]; (ii) the concentration required for semi-maximal inhibition.
Mark Yes for IC50 under 3 µM, No if at or over.

Enquiry: IC50 under 3 µM? Item: COc1ccc(N2CCC3(O)C(=O)c4cc(C)sc4N=C23)cc1 (stereo not shown)
Return: Yes

Enquiry: Criterion: IC50 strictly below 3 µM. Is it met by COc1ccc(N2CC[C@@]3(O)C(=O)c4ccsc4N=C23)cn1 ?
Return: No

Enquiry: Quick check: IC50 of CC(=O)c1ccc(N2CCC3(O)C(=O)c4cc(C)sc4N=C23)cc1 (stereo not shown) under 3 µM?
Return: Yes

Enquiry: State whether 3 µM exceeds IC50 recorded for Cc1cc2c(s1)N=C1N(c3ccc(N)cc3)CCC1(O)C2=O (stereo not shown) .
Return: No

====

assay: tissue concentrations after intraperitoneal injection into a live rat; format: in vivo; details: blood, ip, 6 mg i.p., 30 min, read-out: Concentration of compound 188 in tissue samples (μM) blood
EXPERIMENTAL_READOUT: concentration at 30 min (µM)
Numbers only, in µM.

concentration at 30 min reported for this compound O=C1c2ccsc2N=C2N(c3ccc(N4CCOCC4)cc3)CCC12O (stereo not shown) [Compound 188] : 12

====

experiment: tissue concentrations after intraperitoneal injection into a live rat; format: in vivo; conditions: spleen, ip, 6 mg i.p., 15 min, read-out: Concentration of compound 188 in tissue samples (μM) spleen
EXPERIMENTAL_READOUT: concentration at 15 min (µM)
Answers are plain numbers, in µM.

Value of concentration at 15 min reported for the compound O=C1c2ccsc2N=C2N(c3ccc(N4CCOCC4)cc3)CCC12O (stereo not shown) [Compound 188] is 28

====

biological target: recombinant human non-muscle myosin 2 NM2B (Homo sapiens, UniProt P35580); assay: actomyosin steady state ATPase measurement, NM2B; assay type: biochemical; settings: read-out: % inhibition at 5 μM (or 10 μM if racemate) NM2B; 5 μM (10 μM if racemate); ATPase activity
Sequence (P35580 whole entry): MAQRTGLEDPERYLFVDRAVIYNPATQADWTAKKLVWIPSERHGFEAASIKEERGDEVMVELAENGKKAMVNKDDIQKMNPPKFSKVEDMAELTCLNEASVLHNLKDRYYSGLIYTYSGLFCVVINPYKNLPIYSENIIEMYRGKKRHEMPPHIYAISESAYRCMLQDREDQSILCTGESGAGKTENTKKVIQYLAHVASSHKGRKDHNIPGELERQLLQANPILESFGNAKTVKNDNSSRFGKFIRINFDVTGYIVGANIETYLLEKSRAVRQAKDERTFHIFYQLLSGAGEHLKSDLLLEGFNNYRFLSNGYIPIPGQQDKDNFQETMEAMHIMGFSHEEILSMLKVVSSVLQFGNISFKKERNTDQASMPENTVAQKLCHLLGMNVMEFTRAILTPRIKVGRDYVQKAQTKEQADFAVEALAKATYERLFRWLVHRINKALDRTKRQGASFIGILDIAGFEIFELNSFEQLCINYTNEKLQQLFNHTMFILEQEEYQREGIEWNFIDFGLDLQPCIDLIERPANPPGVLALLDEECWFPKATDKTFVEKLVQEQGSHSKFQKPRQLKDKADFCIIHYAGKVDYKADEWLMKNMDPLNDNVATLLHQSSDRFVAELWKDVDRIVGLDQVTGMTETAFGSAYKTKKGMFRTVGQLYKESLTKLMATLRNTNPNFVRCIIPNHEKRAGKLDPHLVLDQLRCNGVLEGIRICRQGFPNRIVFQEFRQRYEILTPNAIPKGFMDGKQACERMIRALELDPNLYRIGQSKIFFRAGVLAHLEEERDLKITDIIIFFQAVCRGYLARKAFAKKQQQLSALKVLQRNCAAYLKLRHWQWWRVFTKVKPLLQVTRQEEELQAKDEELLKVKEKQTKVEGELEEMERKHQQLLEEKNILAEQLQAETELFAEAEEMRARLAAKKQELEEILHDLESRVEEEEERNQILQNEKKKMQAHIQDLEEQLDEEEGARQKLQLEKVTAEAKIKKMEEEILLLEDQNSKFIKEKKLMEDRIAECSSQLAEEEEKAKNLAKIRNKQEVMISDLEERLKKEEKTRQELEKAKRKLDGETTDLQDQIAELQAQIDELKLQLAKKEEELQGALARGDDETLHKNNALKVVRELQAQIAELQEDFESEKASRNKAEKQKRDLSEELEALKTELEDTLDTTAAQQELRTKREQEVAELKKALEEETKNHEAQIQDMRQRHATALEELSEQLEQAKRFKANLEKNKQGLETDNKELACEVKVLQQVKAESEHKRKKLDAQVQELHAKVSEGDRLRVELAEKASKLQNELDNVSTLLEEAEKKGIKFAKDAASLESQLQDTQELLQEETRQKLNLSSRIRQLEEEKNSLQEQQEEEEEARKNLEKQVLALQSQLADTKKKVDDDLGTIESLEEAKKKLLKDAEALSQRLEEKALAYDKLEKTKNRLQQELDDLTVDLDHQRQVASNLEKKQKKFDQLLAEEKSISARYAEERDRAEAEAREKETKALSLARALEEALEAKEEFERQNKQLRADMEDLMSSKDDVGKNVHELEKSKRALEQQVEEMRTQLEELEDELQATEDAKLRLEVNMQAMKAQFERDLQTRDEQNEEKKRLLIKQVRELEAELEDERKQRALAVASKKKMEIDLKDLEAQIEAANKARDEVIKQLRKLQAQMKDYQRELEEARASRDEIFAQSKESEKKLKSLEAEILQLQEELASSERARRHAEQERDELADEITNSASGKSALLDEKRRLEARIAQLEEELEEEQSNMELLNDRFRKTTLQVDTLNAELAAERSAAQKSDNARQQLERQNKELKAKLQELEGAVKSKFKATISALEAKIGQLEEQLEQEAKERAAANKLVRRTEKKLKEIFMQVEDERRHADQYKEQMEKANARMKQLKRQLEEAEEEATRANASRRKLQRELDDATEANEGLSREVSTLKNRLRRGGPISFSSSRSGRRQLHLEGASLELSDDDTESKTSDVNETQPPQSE
EXPERIMENTAL_READOUT: inhibition at 5 µM (%)
Give bare numbers, in %.

Please go through the list and note inhibition at 5 µM for each molecule.
1. Cc1cc2c(s1)N=C1N(c3ccccc3)CCC1(O)C2=O (stereo not drawn)
2. O=C1c2sccc2N=C2N(c3ccccc3)CCC12O (stereo not drawn)
3. O=C1c2ccsc2N=C2N(c3ccccc3)CCC12O (stereo not drawn)
4. O=C1c2cccnc2N=C2N(c3ccccc3)CCC12O (stereo not drawn)
5. O=C1c2ccsc2N=C2N(c3ccc(N4CCOCC4)cc3)CCC12O (stereo not drawn)
6. O=C1c2ccncc2N=C2N(c3ccccc3)CCC12O (stereo not drawn)

Return:
24
16
14
0
8
2
